# Test system: UO-31
# Method notes: NCI tumour cell line growth inhibition, 48 h
Activity calls are given as the source filed them. No stated cut-off is given here; in the data, active = GI50 up to about 1.1 µM and inactive = higher.
Labels: true (1) = active, false (0) = inactive

[[record]]
compound = "CCCCc1c2c(nc3c1CC/C(=C\\c1ccc([N+](=O)[O-])cc1)C3=O)CCCC2"
category = "false (0)"

[[record]]
compound = "N/C(=N\\c1ccc(Cl)cc1)NS(=O)(=O)c1cc(Cl)c(Oc2ccc([N+](=O)[O-])cc2Cl)c(Cl)c1"
category = "false (0)"

[[record]]
compound = "CC(=O)O[C@H]1CC2C(C3CCC(C(C)CCC(=O)O)[C@]31C)[C@H](OC(C)=O)C[C@@H]1CC3(CC[C@]21C)OOC1(CC[C@]2(C)C4C[C@H](OC(C)=O)[C@]5(C)C(C(C)CCC(=O)O)CCC5C4[C@H](OC(C)=O)C[C@@H]2C1)OO3 (some centres undefined)"
category = "false (0)"

[[record]]
compound = "COc1c(/C=C/C(C)(C)O)cc(C2CC(=O)c3c(O)cc(O)cc3O2)cc1CC=C(C)C (centres undefined)"
category = "true (1)"

[[record]]
compound = "Nc1ncnc2c1nc(O)n2-c1ccccc1"
category = "false (0)"

[[record]]
compound = "CC1(C(=O)O)C[C@](C)(C(=O)OCc2ccccc2)C[C@](C)(C(=O)OCc2ccccc2)C1 (some centres undefined)"
category = "false (0)"

[[record]]
compound = "C[N+](C)(C)Cc1c(CC#N)[nH]c2ccccc12"
category = "false (0)"

[[record]]
compound = "COc1ccc(OC)c(N(CN2C(=O)CCC2C(=O)O)C(C)=O)c1 (centres undefined)"
category = "false (0)"

[[record]]
compound = "COC(=O)[C@H]1NC(=O)CCSSC1(C)C"
category = "false (0)"

[[record]]
compound = "CC12Cc3cc4c(cc3C1(c1ccc([N+](=O)[O-])cc1)OCCO2)OCO4 (centres undefined)"
category = "false (0)"

[[record]]
compound = "COc1cc(OC(C)=O)cc2c(OC(C)=O)ccc(OC(C)=O)c12"
category = "false (0)"

[[record]]
compound = "C=CCNC(=O)CN(CC(=O)OC)C1CCCCC1N(CC(=O)OC)CC(=O)OC (centres undefined)"
category = "false (0)"

[[record]]
compound = "C/C=C1\\NC(=O)[C@H](Cc2ccccc2)NC(=O)[C@@H](C(C)C)NC(=O)[C@@H]([C@@H](C)CC)NC(=O)[C@H](NC(=O)[C@H](NC(=O)[C@H](CCCN)NC(=O)[C@H]2CCCN2C(=O)[C@H](NC(=O)[C@@H](NC(=O)[C@@H](NC(=O)[C@H](NC(=O)CCCC(C)C)C(C)C)[C@@H](C)O)C(C)C)C(C)C)[C@@H](C)CC)[C@@H](C)OC(=O)[C@H](C(C)C)NC1=O"
category = "false (0)"

[[record]]
compound = "C=C1C(=O)OC2CCCCC3OC3C12 (centres undefined)"
category = "false (0)"


---

# maps each entry to its GI50
# Test system: OVCAR-4
# Method notes: NCI tumour cell line growth inhibition, 48 h
Calls of active or inactive are those of the source. Cut-off read from the data, not from the text of the source: active = GI50 up to about 1.1 µM and inactive = higher.
Quantity name: GI50

[[record]]
compound = "N#CCCN(CCC#N)c1ccc(/C=C(/NC(=O)c2cc([N+](=O)[O-])ccc2Cl)C(=O)NN)cc1"
quantity_name = "GI50"
test_value = "> 100 µM (inactive)"

[[record]]
compound = "Cc1cccc(CNNC(=O)c2cc[n+]([BH2-]C#N)cc2)c1"
quantity_name = "GI50"
test_value = "42 µM (inactive)"

[[record]]
compound = "O=C1Nc2ccc(Br)cc2/C1=N/N1C(=O)C(=O)N(C2CCCCC2)C1=S"
quantity_name = "GI50"
test_value = "4.44 µM (inactive)"

[[record]]
compound = "O=C(O)c1ccc(Nc2nc3ccc(C(F)(F)F)cc3nc2C(=O)O)cc1"
quantity_name = "GI50"
test_value = "> 100 µM (inactive)"

[[record]]
compound = "CCCCCc1c(Cl)nc(Cl)nc1Cl"
quantity_name = "GI50"
test_value = "16.1 µM (inactive)"

[[record]]
compound = "CCOc1ccc2c(c1)[n+]([O-])c(-c1ccc([N+](=O)[O-])cc1)c(N)[n+]2[O-]"
quantity_name = "GI50"
test_value = "> 100 µM (inactive)"

[[record]]
compound = "O=C(Nc1ccccc1)c1cc2ccccc2c(/N=N/c2ccc([N+](=O)[O-])cc2)c1O"
quantity_name = "GI50"
test_value = "> 100 µM (inactive)"

[[record]]
compound = "COc1cc(C(=O)C/C(CCCC(=O)Nc2ccccc2[N+](=O)[O-])=N/NC(=O)c2cc3ccccc3cc2O)ccc1O"
quantity_name = "GI50"
test_value = "38.3 µM (inactive)"

[[record]]
compound = "CC(NC1=NCCO1)c1cccs1 (centres undefined)"
quantity_name = "GI50"
test_value = "30.8 µM (inactive)"

[[record]]
compound = "NC(=O)CCC(NC(=O)Cc1ccccc1)C(=O)O.NC(CCC(=O)NC(=O)Cc1ccccc1)C(=O)O (centres undefined)"
quantity_name = "GI50"
test_value = "> 8130 µM (inactive)"

[[record]]
compound = "COC[C@@H](/N=C/c1ccc([N+](=O)[O-])cc1)C(C)C"
quantity_name = "GI50"
test_value = "> 100 µM (inactive)"

[[record]]
compound = "Cn1c(=O)c2nc(N3CCCCC3)cnc2n(C)c1=O"
quantity_name = "GI50"
test_value = "> 100 µM (inactive)"

[[record]]
compound = "CNC(=O)N(C)COC"
quantity_name = "GI50"
test_value = "> 100 µM (inactive)"

[[record]]
compound = "CN(Cc1cc(Cl)cc(Cl)c1)CC(C(=O)c1ccccc1)c1ccccc1 (centres undefined)"
quantity_name = "GI50"
test_value = "2.07 µM (inactive)"

